system: HS-Sch-2; experiment: drug sensitivity score (DSS, CellTiter-Glo viability, 72 h) (DSS (dimensionless)); higher = more sensitive; extreme values may be limits of the assay
Recorded drug sensitivity score for the following compounds
QUANTITY MEASURED: drug sensitivity score

compound="C[C@]1(O)C[C@@H](c2nc(-c3ccc4ccc(-c5ccccc5)nc4c3)c3c(N)nccn32)C1 [Linsitinib] (max concentration tested 10000 nM)" quantity_measured="drug sensitivity score" reported_result=2.13
compound="CC(C)N(CCCNC(=O)Nc1ccc(C(C)(C)C)cc1)C[C@H]1O[C@@H](n2cc(Br)c3c(N)ncnc32)[C@H](O)[C@@H]1O [SGC0946] (max concentration tested 10000 nM)" quantity_measured="drug sensitivity score" reported_result=3.88
compound="COCC(=O)NC/C=C/c1ccc2ncnc(Nc3ccc(Oc4ccc(C)nc4)c(C)c3)c2c1 (max concentration tested 10000 nM)" quantity_measured="drug sensitivity score" reported_result=3.05
compound="CCNC(=O)CCC/C=C\\C[C@@H]1[C@@H](/C=C/[C@@H](O)CCc2ccccc2)[C@H](O)C[C@@H]1O [Bimatoprost] (max concentration tested 5500 nM)" quantity_measured="drug sensitivity score" reported_result=0.89
compound="Clc1ccc(Nc2nnc(Cc3ccncc3)c3ccccc23)cc1 [Vatalanib] (max concentration tested 10000 nM)" quantity_measured="drug sensitivity score" reported_result=1.77
compound="O=S(=O)(c1cccc2cnccc12)N1CCCNCC1 [Fasudil] (max concentration tested 50000 nM)" quantity_measured="drug sensitivity score" reported_result=3.75
compound="Cn1cnc(-c2cc3nccc(Oc4ccc(NC(=S)NC(=O)Cc5ccccc5)cc4F)c3s2)c1 [MGCD-265] (max concentration tested 10000 nM)" quantity_measured="drug sensitivity score" reported_result=2.2
compound="Cc1nc(N)sc1-c1ccnc(Nc2ccc(N3CCOCC3)cc2)n1 [CYC-116] (max concentration tested 10000 nM)" quantity_measured="drug sensitivity score" reported_result=4.97
compound="COc1cc(Nc2ncc3c(n2)-c2ccc(Cl)cc2C(c2c(F)cccc2OC)=NC3)ccc1C(=O)O [Alisertib] (max concentration tested 10000 nM)" quantity_measured="drug sensitivity score" reported_result=11.3
compound="CC(C)C[C@@H](C(=O)N[C@H](C(=O)OC1CCCC1)c1ccccc1)[C@H](O)C(=O)NO [Tosedostat] (max concentration tested 10000 nM)" quantity_measured="drug sensitivity score" reported_result=11
compound="c1cn2cc(-c3ccc4cn[nH]c4c3)nc(Nc3ccc(N4CCOCC4)cc3)c2n1 [Entospletinib] (max concentration tested 5000 nM)" quantity_measured="drug sensitivity score" reported_result=0.89
compound="CCN1CCN(c2ccc(Nc3cc(N(C)C(=O)Nc4c(Cl)c(OC)cc(OC)c4Cl)ncn3)cc2)CC1 [NVP-BGJ398] (max concentration tested 1000 nM)" quantity_measured="drug sensitivity score" reported_result=0
